Measured melting point accompanies every entry in the list below.

Sample answers from the record:
Compound	melting point
Cc1nn(-c2ccc(S(=O)(=O)N[C@@H](CO)Cc3ccccc3)cc2)c2nn3nnnc3nc12 [Compound 3b]	170 to 172 °C
Cc1nn(-c2ccc(S(=O)(=O)N[C@H](CO)Cc3ccccc3)cc2)c2nnc(S(C)(=O)=O)nc12 [Compound 2a]	130 to 134 °C
Cc1nn(-c2ccc(S(=O)(=O)N[C@@H](CO)Cc3ccccc3)cc2)c2nnc(S(C)(=O)=O)nc12 [Compound 2b]	124 to 128 °C

Query block: Item Cc1nn(-c2ccc(S(=O)(=O)N[C@H](CO)Cc3ccccc3)cc2)c2nn3nnnc3nc12 [Compound 3a] has what recorded melting point?
Result block: 172 to 176 °C

----------
assay: in vitro; conditions: human
IC50 at 24 h values by entry
Could you give me the number in µM? Just the number is fine.

Smiles code	Unit of measure	Numeric readout
Cc1nn(-c2ccc(S(=O)(=O)N[C@@H](CO)Cc3ccccc3)cc2)c2nn3nnnc3nc12	µM	2.3

Query block: Reported IC50 at 24 h for `Cc1nn(-c2ccc(S(=O)(=O)N[C@H](CO)Cc3ccccc3)cc2)c2nn3nnnc3nc12` : what is it?
Result block: 3.5

----------
system: MDA-MB-231 breast cancer cells; assay: MTT viability assay, MDA-MB-231; settings: Homo sapiens, MDA-MB-231, 24 h, read-out: Cytotoxicity IC50 MDA-MB-231
Assay readout: pIC50
// pIC50 is dimensionless: -log10 of concentration (M)

Use the examples below as a reference point.
Smiles code	Assay readout	Numeric readout
Cc1nn(-c2ccc(S(=O)(=O)N[C@H](CO)Cc3ccccc3)cc2)c2nn3nnnc3nc12	pIC50	6.15
Cc1nn(-c2ccc(S(=O)(=O)N[C@@H](CO)Cc3ccccc3)cc2)c2nn3nnnc3nc12	pIC50	6.51
Cc1nn(-c2ccc(S(=O)(=O)N[C@H](CO)Cc3ccccc3)cc2)c2nnc(S(C)(=O)=O)nc12	pIC50	5.04

Next up:
Query block: Given `Cc1nn(-c2ccc(S(=O)(=O)N[C@@H](CO)Cc3ccccc3)cc2)c2nnc(S(C)(=O)=O)nc12` , state its recorded pIC50.
Result block: 5.11
